Recorded values, source ChEMBL document CHEMBL3627660.

Target: Cytochrome P450 3A4 (Homo sapiens)
Sequence (P08684 whole entry): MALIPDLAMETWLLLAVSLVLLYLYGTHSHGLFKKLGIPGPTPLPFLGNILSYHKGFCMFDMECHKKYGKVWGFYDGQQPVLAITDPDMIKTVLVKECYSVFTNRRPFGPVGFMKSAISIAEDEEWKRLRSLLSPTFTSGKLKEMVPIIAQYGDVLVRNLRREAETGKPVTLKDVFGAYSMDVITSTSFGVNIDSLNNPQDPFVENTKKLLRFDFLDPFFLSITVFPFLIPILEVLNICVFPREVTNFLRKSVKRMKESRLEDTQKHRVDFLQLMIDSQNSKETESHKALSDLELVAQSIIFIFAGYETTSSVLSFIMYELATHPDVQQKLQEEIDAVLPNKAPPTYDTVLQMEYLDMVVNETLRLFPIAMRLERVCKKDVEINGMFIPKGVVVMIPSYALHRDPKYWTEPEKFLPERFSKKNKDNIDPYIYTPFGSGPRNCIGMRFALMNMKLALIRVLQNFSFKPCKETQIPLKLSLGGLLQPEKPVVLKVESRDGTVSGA
Please respond with True when measured IC50 is strictly beneath 300 nM, and with False in all other cases.

Qu. Strictly below 300 nM: is that where IC50 of CC(C)[C@](C)(NCc1ccc2ncccc2c1)c1cn(C(CCS(C)(=O)=O)C(=O)COc2c(F)c(F)cc(F)c2F)nn1 (some centres not stated) sits?
Ans. False

Qu. Strictly below 300 nM: is that where IC50 of C[C@@](NCc1ccc2ncsc2c1)(c1cn(C(CCS(C)(=O)=O)C(=O)COc2c(F)c(F)cc(F)c2F)nn1)C1CCCC1 (some centres not stated) sits?
Ans. True

Qu. Strictly below 300 nM: is that where IC50 of CCCCC(C(=O)COc1c(F)c(F)cc(F)c1F)n1cc([C@@](C)(NCc2ccn3nccc3n2)C2CCCC2)nn1 (some centres not stated) sits?
Ans. True

Qu. Strictly below 300 nM: is that where IC50 of CCCCC(C(=O)COc1c(F)c(F)cc(F)c1F)n1cc([C@@](C)(NCc2ccc3ncccc3c2)C2CCCC2)nn1 (some centres not stated) sits?
Ans. True

Qu. Strictly below 300 nM: is that where IC50 of CCCCC(C(=O)COc1c(F)c(F)cc(F)c1F)n1cc([C@@](C)(NCc2ccn3nccc3n2)C(C)C)nn1 (some centres not stated) sits?
Ans. False

Qu. Strictly below 300 nM: is that where IC50 of CCCCC(C(=O)COc1c(F)c(F)cc(F)c1F)n1cc([C@@](C)(NCc2ccc3ncccc3c2)C(C)C)nn1 (some centres not stated) sits?
Ans. False

----------
Test system: Trypanosoma cruzi
Test: Antitrypanosomal activity against Trypanosoma cruzi infected in C2C12 cells after 72 hrs by DAPI staining
Type: functional, organism-based
Settings: C2C12, 72 h
Please respond with MET when measured IC50 is strictly beneath 20 nM, and with NOT MET in all other cases.

Qu. Strictly below 20 nM: is that where IC50 of CCCCC(C(=O)COc1c(F)c(F)cc(F)c1F)n1cc([C@@](C)(NCc2ccc3ncsc3c2)C(C)C)nn1 (some centres undefined) sits?
Ans. MET

Qu. Strictly below 20 nM: is that where IC50 of CC(C)[C@](C)(NCc1ccn2nccc2n1)c1cn(C(CCS(C)(=O)=O)C(=O)COc2c(F)c(F)cc(F)c2F)nn1 (some centres undefined) sits?
Ans. NOT MET

Qu. Strictly below 20 nM: is that where IC50 of C[C@@](NCc1ccc2ncsc2c1)(c1cn(C(CCS(C)(=O)=O)C(=O)COc2c(F)c(F)cc(F)c2F)nn1)C1CCCC1 (some centres undefined) sits?
Ans. MET

Qu. Strictly below 20 nM: is that where IC50 of C[C@@](NCc1ccc2occc2c1)(c1cn(C(CCS(C)(=O)=O)C(=O)COc2c(F)c(F)cc(F)c2F)nn1)C1CCCC1 (some centres undefined) sits?
Ans. MET

Qu. Strictly below 20 nM: is that where IC50 of CCCCC(C(=O)COc1c(F)c(F)cc(F)c1F)n1cc([C@@](C)(NC(=O)c2ccncc2)C(C)C)nn1 (some centres undefined) sits?
Ans. NOT MET

Qu. Strictly below 20 nM: is that where IC50 of CCCCC(C(=O)COc1c(F)c(F)cc(F)c1F)n1cc([C@@](C)(NCc2ccn3nccc3n2)C(C)C)nn1 (some centres undefined) sits?
Ans. MET

Qu. Strictly below 20 nM: is that where IC50 of CCCCC(C(=O)COc1c(F)c(F)cc(F)c1F)n1cc([C@@](C)(NCc2ccc3ncccc3c2)C(C)C)nn1 (some centres undefined) sits?
Ans. NOT MET

Qu. Strictly below 20 nM: is that where IC50 of CCCCC(C(=O)COc1c(F)c(F)cc(F)c1F)n1cc([C@@](C)(NCc2ccc3ncsc3c2)C2CCCC2)nn1 (some centres undefined) sits?
Ans. MET

Qu. Strictly below 20 nM: is that where IC50 of COCCC(C(=O)COc1c(F)c(F)cc(F)c1F)n1cc([C@@](C)(NCc2ccc3ncsc3c2)C(C)C)nn1 (some centres undefined) sits?
Ans. NOT MET

Qu. Strictly below 20 nM: is that where IC50 of CCCCC(C(=O)COc1c(F)c(F)cc(F)c1F)n1cc([C@@](C)(NCc2ccc3ncccc3c2)C2CCCC2)nn1 (some centres undefined) sits?
Ans. MET

Qu. Strictly below 20 nM: is that where IC50 of CC(C)[C@](C)(NCc1ccc2ncsc2c1)c1cn(C(CCS(C)(=O)=O)C(=O)COc2c(F)c(F)cc(F)c2F)nn1 (some centres undefined) sits?
Ans. MET

Qu. Strictly below 20 nM: is that where IC50 of CC(C)[C@](C)(NCc1ccc2occc2c1)c1cn(C(CCS(C)(=O)=O)C(=O)COc2c(F)c(F)cc(F)c2F)nn1 (some centres undefined) sits?
Ans. MET

Qu. Strictly below 20 nM: is that where IC50 of COCCC(C(=O)COc1c(F)c(F)cc(F)c1F)n1cc([C@@](C)(NCc2ccc3ncccc3c2)C(C)C)nn1 (some centres undefined) sits?
Ans. MET

Qu. Strictly below 20 nM: is that where IC50 of CCCCC(C(=O)COc1c(F)c(F)cc(F)c1F)n1cc([C@@](C)(NCc2ccncc2)C(C)C)nn1 (some centres undefined) sits?
Ans. NOT MET

Qu. Strictly below 20 nM: is that where IC50 of COCCC(C(=O)COc1c(F)c(F)cc(F)c1F)n1cc([C@@](C)(NCc2ccc3ncsc3c2)C2CCCC2)nn1 (some centres undefined) sits?
Ans. MET

Qu. Strictly below 20 nM: is that where IC50 of CC(C)[C@](C)(NCc1ccc2ncccc2c1)c1cn(C(CCS(C)(=O)=O)C(=O)COc2c(F)c(F)cc(F)c2F)nn1 (some centres undefined) sits?
Ans. NOT MET

Qu. Strictly below 20 nM: is that where IC50 of CCCCC(C(=O)COc1c(F)c(F)cc(F)c1F)n1cc([C@@](C)(NC(=O)c2ccc3ncsc3c2)C(C)C)nn1 (some centres undefined) sits?
Ans. NOT MET

Qu. Strictly below 20 nM: is that where IC50 of CCCCC(C(=O)COc1c(F)c(F)cc(F)c1F)n1cc([C@@](C)(NC(=O)c2ccc3ncccc3c2)C(C)C)nn1 (some centres undefined) sits?
Ans. NOT MET

----------
Test: Half life in mice after oral dosing
Conditions: in vivo
measuredAttribute: half-life (min)
Unit min implied. Number only.

Qu. Input CCCCC(C(=O)COc1c(F)c(F)cc(F)c1F)n1cc([C@@](C)(NCc2ccc3ncccc3c2)C(C)C)nn1 (stereo partly specified) , output reported half-life.
Ans. 198

----------
Target: Cruzipain (Trypanosoma cruzi, UniProt P25779)
Sequence (P25779 whole entry): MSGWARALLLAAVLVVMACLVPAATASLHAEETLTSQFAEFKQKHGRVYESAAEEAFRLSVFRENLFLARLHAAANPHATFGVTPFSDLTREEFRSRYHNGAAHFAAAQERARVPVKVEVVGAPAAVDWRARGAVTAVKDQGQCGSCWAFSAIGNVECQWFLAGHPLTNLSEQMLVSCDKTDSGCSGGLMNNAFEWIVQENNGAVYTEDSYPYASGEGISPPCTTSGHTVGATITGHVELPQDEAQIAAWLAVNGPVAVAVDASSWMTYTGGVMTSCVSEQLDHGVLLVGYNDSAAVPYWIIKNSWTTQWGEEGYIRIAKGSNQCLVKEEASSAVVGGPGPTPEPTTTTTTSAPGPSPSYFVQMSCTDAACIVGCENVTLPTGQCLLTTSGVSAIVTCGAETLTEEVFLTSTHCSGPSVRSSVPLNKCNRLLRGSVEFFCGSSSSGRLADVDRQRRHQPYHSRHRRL
Experiment: Inhibition of Trypanosoma cruzi recombinant cruzain using Z-FR-AMC as substrate after 5 mins by fluorescence assay
measuredAttribute: pIC50
To interpret pIC50, take it as minus log10 of a concentration measured in moles per litre.

Qu. Input C[C@@](NCc1ccc2occc2c1)(c1cn(C(CCS(C)(=O)=O)C(=O)COc2c(F)c(F)cc(F)c2F)nn1)C1CCCC1 (stereo partly drawn) , output reported pIC50.
Ans. 6.10

Qu. Input CCCCC(C(=O)COc1c(F)c(F)cc(F)c1F)n1cc([C@@](C)(NCc2ccc3ncsc3c2)C2CCCC2)nn1 (stereo partly drawn) , output reported pIC50.
Ans. 8.30

Qu. Input COCCC(C(=O)COc1c(F)c(F)cc(F)c1F)n1cc([C@@](C)(NCc2ccc3ncccc3c2)C(C)C)nn1 (stereo partly drawn) , output reported pIC50.
Ans. 6.47

Qu. Input COCCC(C(=O)COc1c(F)c(F)cc(F)c1F)n1cc([C@@](C)(NCc2ccc3ncsc3c2)C(C)C)nn1 (stereo partly drawn) , output reported pIC50.
Ans. 7.20

Qu. Input CC(C)[C@](C)(NCc1ccn2nccc2n1)c1cn(C(CCS(C)(=O)=O)C(=O)COc2c(F)c(F)cc(F)c2F)nn1 (stereo partly drawn) , output reported pIC50.
Ans. 6.33

Qu. Input CCCCC(C(=O)COc1c(F)c(F)cc(F)c1F)n1cc([C@@](C)(NCc2ccn3nccc3n2)C(C)C)nn1 (stereo partly drawn) , output reported pIC50.
Ans. 7.12

Qu. Input CCCCC(C(=O)COc1c(F)c(F)cc(F)c1F)n1cc([C@@](C)(NC(=O)c2ccncc2)C(C)C)nn1 (stereo partly drawn) , output reported pIC50.
Ans. 4.64

Qu. Input CCCCC(C(=O)COc1c(F)c(F)cc(F)c1F)n1cc([C@@](C)(NC(=O)c2ccc3ncccc3c2)C(C)C)nn1 (stereo partly drawn) , output reported pIC50.
Ans. 5.87

----------
Experiment: Cmax in mouse at 10 mg/kg, iv
Format: ADME, organism-based
Design: dose 10 mg/kg, route intravenous
Conditions: in vivo
measuredAttribute: Cmax

Qu. Input CCCCC(C(=O)COc1c(F)c(F)cc(F)c1F)n1cc([C@@](C)(NCc2ccc3ncccc3c2)C(C)C)nn1 (stereo partly specified) , output reported Cmax.
Ans. 4130 ng/mL
